- TARGET OR TEST SYSTEM: RNase H activity of HIV reverse transcriptase (Human immunodeficiency virus type 1 group M subtype B, UniProt P03366)
- Construct: 2.5 nM of the p51/p66 RT heterodimer in the assay; made in house
- ASSAY EXPLANATION: Fluorescence (FRET)-based RNase H assay of HIV reverse transcriptase
- Assay type: biochemical, HIV-1
- MEASUREMENT SETUP: 20 μM inhibitor concentration
ASSAY ENDPOINT: % inhibition of RNase H at 20 μM
Report the figure along with its unit, number first.

Sample CCCCCc1c2c(nc3ccc(F)cc13)-c1cc(C(O)C(C)CC)c(C)c(=O)n1C2 (centres unmarked) ; % inhibition of RNase H at 20 μM observed: 58%

Sample CCc1c2c(nc3ccc(C)cc13)-c1cc(C(O)C(C)CC)c(C)c(=O)n1C2 (centres unmarked) ; % inhibition of RNase H at 20 μM observed: 60%

Sample CCc1c2c(nc3ccc(F)cc13)-c1cc(C(O)C3CCCCC3)c(C)c(=O)n1C2 (centres unmarked) ; % inhibition of RNase H at 20 μM observed: 75%

Sample CCCCCc1c2c(nc3ccc(OC)cc13)-c1cc(C(O)C3CCCCC3)c(C)c(=O)n1C2 (centres unmarked) ; % inhibition of RNase H at 20 μM observed: 65%

Sample CCCCCc1c2c(nc3ccc(C(F)(F)F)cc13)-c1cc(C(O)C(C)CC)c(C)c(=O)n1C2 (centres unmarked) ; % inhibition of RNase H at 20 μM observed: 55%

Sample CCC(O)c1cc2n(c(=O)c1C)Cc1c-2nc2ccccc2c1-c1ccccc1 (centres unmarked) ; % inhibition of RNase H at 20 μM observed: 74%

Sample CCc1c2c(nc3ccc(C(F)(F)F)cc13)-c1cc(C(O)C3CCCCC3)c(C)c(=O)n1C2 (centres unmarked) ; % inhibition of RNase H at 20 μM observed: 65%

Sample CCCCCc1c2c(nc3ccccc13)-c1cc(C(O)C3CCCCC3)c(C)c(=O)n1C2 (centres unmarked) ; % inhibition of RNase H at 20 μM observed: 71%

====

- TARGET OR TEST SYSTEM: RNase H activity of HIV reverse transcriptase (Human immunodeficiency virus type 1 group M subtype B, UniProt P03366)
- Construct: 2.5 nM of the p51/p66 RT heterodimer in the assay; made in house
- ASSAY EXPLANATION: Fluorescence (FRET)-based RNase H assay of HIV reverse transcriptase
- Assay type: biochemical, HIV-1
- MEASUREMENT SETUP: 20 μM inhibitor concentration
Consider the following compounds; for each one, report its inhibition at 20 µM.
Please state the figure in %; there is no need to write the unit.

Sample CCCCc1c2c(nc3c1cn1c(=O)c(C)c(C(O)C(C)C)cc31)=CC=C(OC)C2 (centres unmarked) [Compound 5.6.3] ; inhibition at 20 µM observed: 90

Sample CCC(C)C(O)c1cc2n(c(=O)c1C)Cc1c-2nc2ccccc2c1-c1ccccc1 (centres unmarked) [Compound 4.8.1] ; inhibition at 20 µM observed: 80

Sample CCCCCc1c2c(nc3ccc(F)cc13)-c1cc(C(O)C3CCCCC3)c(C)c(=O)n1C2 (centres unmarked) [Compound 6.7.2] ; inhibition at 20 µM observed: 76

Sample CCCCCc1c2c(nc3ccc(CC)cc13)-c1cc(C(O)C(C)CC)c(C)c(=O)n1C2 (centres unmarked) [Compound 4.7.5] ; inhibition at 20 µM observed: 100

Sample Cc1c(C(O)C2CCCCC2)cc2n(c1=O)Cc1c-2nc2ccc(OC(F)(F)F)cc2c1-c1ccccc1 (centres unmarked) [Compound 6.8.7] ; inhibition at 20 µM observed: 87

Sample CCCCCc1c2c(nc3ccc(C)cc13)-c1cc(C(O)CC)c(C)c(=O)n1C2 (centres unmarked) [Compound 3.7.9] ; inhibition at 20 µM observed: 75

Sample Cc1c(C(C)O)cc2n(c1=O)Cc1c-2nc2ccc(OC(F)(F)F)cc2c1-c1ccccc1 (centres unmarked) [Compound 1.8.7] ; inhibition at 20 µM observed: 80

Sample CCCCc1c2c(nc3ccc(OC(F)(F)F)cc13)-c1cc(C(C)O)c(C)c(=O)n1C2 (centres unmarked) [Compound 1.6.7] ; inhibition at 20 µM observed: 75

Sample CCCC(O)c1cc2n(c(=O)c1C)Cc1c-2nc2ccccc2c1-c1ccccc1 (centres unmarked) [Compound 2.8.1] ; inhibition at 20 µM observed: 83

Sample CCCC(O)c1cc2n(c(=O)c1C)Cc1c-2nc2ccc(C)cc2c1-c1ccccc1 (centres unmarked) [Compound 2.8.9] ; inhibition at 20 µM observed: 78

Sample CCc1c2c(nc3ccc(C(F)(F)F)cc13)-c1cc(C(O)C(C)C)c(C)c(=O)n1C2 (centres unmarked) [Compound 5.4.4] ; inhibition at 20 µM observed: 87

Sample Cc1c(C(O)C2CCCCC2)cc2n(c1=O)Cc1c-2nc2ccc(C(F)(F)F)cc2c1-c1ccccc1 (centres unmarked) [Compound 6.8.4] ; inhibition at 20 µM observed: 81

Sample Cc1ccc2nc3c(c(-c4ccccc4)c2c1)Cn1c-3cc(C(C)O)c(C)c1=O (centres unmarked) [Compound 1.8.9] ; inhibition at 20 µM observed: 75

Sample CCCCCc1c2c(nc3c(F)cccc13)-c1cc(C(O)CC)c(C)c(=O)n1C2 (centres unmarked) [Compound 3.7.8] ; inhibition at 20 µM observed: 82

====

- TARGET OR TEST SYSTEM: RNA-dependent DNA polymerase activity of HIV reverse transcriptase (Human immunodeficiency virus type 1 group M subtype B, UniProt P03366)
- Construct: made in house
- ASSAY EXPLANATION: RNA-dependent DNA polymerase activity assay of HIV reverse transcriptase
- Type: biochemical, HIV-1
- MEASUREMENT SETUP: 10 μM inhibitor concentration; activity in presence / in absence of analog x 100
Consider the following compounds; for each one, report its Residual activity (%) Polymerase.
Please state the figure in %; there is no need to write the unit.

Sample CCCCCCc1c2c(nc3ccccc13)-c1cc(C(O)Cc3ccccc3)c(C)c(=O)n1C2 (stereo not shown) ; Residual activity (%) Polymerase observed: 58

Sample COc1ccc2nc3c(c(-c4ccccc4)c2c1)Cn1c-3cc(C(O)Cc2ccccc2)c(C)c1=O (stereo not shown) ; Residual activity (%) Polymerase observed: 61

Sample CCCCCCc1c2c(nc3ccccc13)-c1cc(C(O)CC)c(C)c(=O)n1C2 (stereo not shown) ; Residual activity (%) Polymerase observed: 42

Sample CCCCCCc1c2c(nc3ccc(OC)cc13)-c1cc(C(O)CCC3CCCCC3)c(C)c(=O)n1C2 (stereo not shown) ; Residual activity (%) Polymerase observed: 81

====

Consider the following molecules; for each one, report its Residual activity (%) Polymerase.
- TARGET OR TEST SYSTEM: RNA-dependent DNA polymerase activity of HIV reverse transcriptase (Human immunodeficiency virus type 1 group M subtype B)
- Construct: made in house
- ASSAY EXPLANATION: RNA-dependent DNA polymerase activity assay of HIV reverse transcriptase
- Assay type: biochemical, HIV-1
- MEASUREMENT SETUP: 10 μM inhibitor concentration; activity in presence / in absence of analog x 100
Please state the figure in %; there is no need to write the unit.

Sample CCCCCCc1c2c(nc3ccc(C)cc13)-c1cc(C(O)CCC3CCCCC3)c(C)c(=O)n1C2 (centres unmarked) [5 (8Cδ)] ; Residual activity (%) Polymerase observed: 73

Sample Cc1c(C(O)CCC2CCCCC2)cc2n(c1=O)Cc1c-2nc2ccccc2c1[Si](C)(C)C (centres unmarked) [5 (5Aδ)] ; Residual activity (%) Polymerase observed: 83

Sample Cc1c(C(=O)CCC2CCCCC2)cc2n(c1=O)Cc1c-2nc2ccc(F)cc2c1[Si](C)(C)C [5 (5Bδκ)] ; Residual activity (%) Polymerase observed: 46

Sample COc1ccc2nc3c(c([Si](C)(C)C(C)(C)C)c2c1)Cn1c-3cc(C(=O)CCC2CCCCC2)c(C)c1=O [5 (4Dδκ)] ; Residual activity (%) Polymerase observed: 50

Sample Cc1c(C(O)CCC2CCCCC2)cc2n(c1=O)Cc1c-2nc2ccccc2c1-c1ccccc1 (centres unmarked) [5 (3Aδ)] ; Residual activity (%) Polymerase observed: 32

Sample CCc1c2c(nc3ccccc13)-c1cc(C(O)CC)c(C)c(=O)n1C2 (centres unmarked) [5 (AG 4M)] ; Residual activity (%) Polymerase observed: 100

Sample Cc1c(C(O)Cc2ccccc2)cc2n(c1=O)Cc1c-2nc2ccccc2c1[Si](C)(C)C(C)(C)C (centres unmarked) [5 (4Aε)] ; Residual activity (%) Polymerase observed: 83

Sample Cc1c(C(O)CCC2CCCCC2)cc2n(c1=O)Cc1c-2nc2ccccc2c1[Si](C)(C)C(C)(C)C (centres unmarked) [5 (4Aδ)] ; Residual activity (%) Polymerase observed: 45

====

Consider the following compounds; for each one, report its Residual activity (%) RNase H.
- TARGET OR TEST SYSTEM: RNase H activity of HIV reverse transcriptase (Human immunodeficiency virus type 1 group M subtype B)
- Construct: 2.5 nM of the p51/p66 RT heterodimer in the assay; made in house
- ASSAY EXPLANATION: Fluorescence (FRET)-based RNase H assay of HIV reverse transcriptase
- Assay type: biochemical, HIV-1
- MEASUREMENT SETUP: 10 μM inhibitor concentration; activity in presence / in absence of analog x 100
Please state the figure in %; there is no need to write the unit.

Sample COc1ccc2nc3c(c(-c4ccccc4)c2c1)Cn1c-3cc(C(O)Cc2ccccc2)c(C)c1=O (centres unmarked) ; Residual activity (%) RNase H observed: 79

Sample Cc1c(C(=O)C(C)(C)C)cc2n(c1=O)Cc1c-2nc2ccccc2c1[Si](C)(C)C ; Residual activity (%) RNase H observed: 97

Sample COc1ccc2nc3c(c([Si](C)(C)C(C)(C)C)c2c1)Cn1c-3cc(C(O)CCC2CCCCC2)c(C)c1=O (centres unmarked) ; Residual activity (%) RNase H observed: 87

Sample CCCCCCc1c2c(nc3ccc(C)cc13)-c1cc(C(=O)CC)c(C)c(=O)n1C2 ; Residual activity (%) RNase H observed: 92

Sample Cc1c(C(=O)CCC2CCCCC2)cc2n(c1=O)Cc1c-2nc2ccc(F)cc2c1[Si](C)(C)C ; Residual activity (%) RNase H observed: 78

Sample CCCCCCc1c2c(nc3ccc(OC)cc13)-c1cc(C(O)CC)c(C)c(=O)n1C2 (centres unmarked) ; Residual activity (%) RNase H observed: 66

Sample Cc1c(C(=O)CCC2CCCCC2)cc2n(c1=O)Cc1c-2nc2ccc(F)cc2c1[Si](C)(C)C(C)(C)C ; Residual activity (%) RNase H observed: 96

Sample CCC(O)c1cc2n(c(=O)c1C)Cc1c-2nc2ccc(F)cc2c1[Si](C)(C)C(C)(C)C (centres unmarked) ; Residual activity (%) RNase H observed: 108

Sample CCCCCCc1c2c(nc3ccccc13)-c1cc(C(=O)CCC3CCCCC3)c(C)c(=O)n1C2 ; Residual activity (%) RNase H observed: 97

Sample CCCCCCc1c2c(nc3ccc(C)cc13)-c1cc(C(=O)C(C)(C)C)c(C)c(=O)n1C2 ; Residual activity (%) RNase H observed: 95

Sample CCC(O)c1cc2n(c(=O)c1C)Cc1c-2nc2ccc(F)cc2c1[Si](C)(C)C (centres unmarked) ; Residual activity (%) RNase H observed: 105

Sample CCCCCCc1c2c(nc3ccc(C)cc13)-c1cc(C(O)CCC3CCCCC3)c(C)c(=O)n1C2 (centres unmarked) ; Residual activity (%) RNase H observed: 72

Sample Cc1c(C(O)CCC2CCCCC2)cc2n(c1=O)Cc1c-2nc2ccccc2c1[Si](C)(C)C(C)(C)C (centres unmarked) ; Residual activity (%) RNase H observed: 95

Sample Cc1c(C(O)C(C)(C)C)cc2n(c1=O)Cc1c-2nc2ccc(F)cc2c1[Si](C)(C)C(C)(C)C (centres unmarked) ; Residual activity (%) RNase H observed: 113

Sample CCCCCCc1c2c(nc3ccc(C)cc13)-c1cc(C(O)C(C)(C)C)c(C)c(=O)n1C2 (centres unmarked) ; Residual activity (%) RNase H observed: 93

Sample Cc1c(C(O)Cc2ccccc2)cc2n(c1=O)Cc1c-2nc2ccc(F)cc2c1[Si](C)(C)C (centres unmarked) ; Residual activity (%) RNase H observed: 88

Sample CCC(=O)c1cc2n(c(=O)c1C)Cc1c-2nc2ccc(C)cc2c1-c1ccccc1 ; Residual activity (%) RNase H observed: 99

Sample Cc1c(C(=O)C(C)(C)C)cc2n(c1=O)Cc1c-2nc2ccc(F)cc2c1-c1ccccc1 ; Residual activity (%) RNase H observed: 95

Sample Cc1c(C(=O)C(C)(C)C)cc2n(c1=O)Cc1c-2nc2ccccc2c1-c1ccccc1 ; Residual activity (%) RNase H observed: 94

Sample Cc1c(C(O)Cc2ccccc2)cc2n(c1=O)Cc1c-2nc2ccccc2c1[Si](C)(C)C(C)(C)C (centres unmarked) ; Residual activity (%) RNase H observed: 93

Sample Cc1c(C(O)C(C)(C)C)cc2n(c1=O)Cc1c-2nc2ccccc2c1[Si](C)(C)C(C)(C)C (centres unmarked) ; Residual activity (%) RNase H observed: 101

Sample CCC(=O)c1cc2n(c(=O)c1C)Cc1c-2nc2ccc(F)cc2c1[Si](C)(C)C(C)(C)C ; Residual activity (%) RNase H observed: 77

Sample CCC(O)c1cc2n(c(=O)c1C)Cc1c-2nc2ccc(C)cc2c1[Si](C)(C)C(C)(C)C (centres unmarked) ; Residual activity (%) RNase H observed: 91

Sample Cc1c(C(O)C(C)(C)C)cc2n(c1=O)Cc1c-2nc2ccccc2c1-c1ccccc1 (centres unmarked) ; Residual activity (%) RNase H observed: 95

Sample COc1ccc2nc3c(c([Si](C)(C)C)c2c1)Cn1c-3cc(C(=O)C(C)(C)C)c(C)c1=O ; Residual activity (%) RNase H observed: 86

Sample CCCCCCc1c2c(nc3ccccc13)-c1cc(C(O)Cc3ccccc3)c(C)c(=O)n1C2 (centres unmarked) ; Residual activity (%) RNase H observed: 71
